Quick list: inhibition at 30 min, 10 µM per entry.
TARGET DESC: CYP3A4 (Homo sapiens, UniProt P08684)
Construct: pre-incubated with human liver microsomes and NADPH for 30 minutes; from tissue; host or cells: human liver microsomes
Sequence (P08684 whole entry): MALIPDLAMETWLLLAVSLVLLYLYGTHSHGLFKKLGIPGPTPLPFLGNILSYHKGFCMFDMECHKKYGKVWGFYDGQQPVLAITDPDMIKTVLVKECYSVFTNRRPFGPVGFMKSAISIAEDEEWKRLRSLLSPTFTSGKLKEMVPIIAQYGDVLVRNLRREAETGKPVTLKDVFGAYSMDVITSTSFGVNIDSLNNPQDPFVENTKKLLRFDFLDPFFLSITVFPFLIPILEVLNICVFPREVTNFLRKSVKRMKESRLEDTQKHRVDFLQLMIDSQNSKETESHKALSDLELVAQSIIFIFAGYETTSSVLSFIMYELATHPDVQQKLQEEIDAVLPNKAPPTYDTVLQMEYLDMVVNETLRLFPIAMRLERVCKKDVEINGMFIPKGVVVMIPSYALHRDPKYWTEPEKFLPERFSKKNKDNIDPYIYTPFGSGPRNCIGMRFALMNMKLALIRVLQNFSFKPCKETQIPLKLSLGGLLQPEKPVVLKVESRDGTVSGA
PROTOCOL NOTES: Cytochrome P450 inhibition assay: midazolam hydroxylation to 1'-hydroxymidazolam in human liver microsomes, with or without 30 min pre-incubation
Assay type: in vitro ADME
CONDITION CONTEXT: human, human liver microsomes, probe midazolam; 10 μM test compound, 30 min (time-dependent inhibition); read-out: CYP3A4 % inh (10 μM, 30 min)
Respond with a number, then the unit of measure.

For orientation, consider the following solved cases.
> print(dat)
                                   compound  assay.result
1  C[C@@H]1CCCN(C(=O)c2cc(F)ccc2-n2nccn2)[C@@H]1CNc1ncc(C(F)(F)F)cn1 [Example A207]           52%
2  C[C@@H]1CCCN(C(=O)c2cc(F)ccc2-c2ncccn2)[C@@H]1CNc1ncc(C(F)(F)F)cn1 [Compound A227]           58%
3  C[C@@H]1CCCN(C(=O)c2c(F)cccc2-n2nccn2)[C@@H]1CNc1ncc(C(F)(F)F)cn1 [Compound A259]           41%
4  C[C@@H]1CCCN(C(=O)c2cc(Cl)ccc2-c2ncccn2)[C@@H]1CNc1ncc(C(F)(F)F)cn1 [Example A201]           59%

Documented inhibition at 30 min, 10 µM of Cc1ccc(-c2ncccn2)c(C(=O)N2CCC[C@@H](C)[C@H]2CNc2ccc(C(F)(F)F)cn2)c1 (racemic) [Example 112] : 94%

Documented inhibition at 30 min, 10 µM of Cc1ccc(-n2nccn2)c(C(=O)N2CCC[C@@H](C)[C@H]2CNc2ccc(C(F)(F)F)cn2)c1 (racemic) [Example 114] : 93%

* * *

Quick list: inhibition at 5 min, 10 µM per entry.
TARGET DESC: CYP3A4 (Homo sapiens, UniProt P08684)
Construct: pre-incubated with human liver microsomes and NADPH for 30 minutes; from tissue; host or cells: human liver microsomes
PROTOCOL NOTES: Cytochrome P450 inhibition assay: midazolam hydroxylation to 1'-hydroxymidazolam in human liver microsomes, with or without 30 min pre-incubation
Type: in vitro ADME
CONDITION CONTEXT: human, human liver microsomes, probe midazolam; 10 μM test compound, 5 min; read-out: CYP3A4 % inh (10 μM, 5 min)
Give the quantity in %, number only.

> print(dat)
                                   molecule                            target.desc  assay.result
1  Cc1ccc(-c2ncccn2)c(C(=O)N2CCC[C@@H](C)[C@H]2CNc2ccc(C(F)(F)F)cn2)c1 (racemic)  CYP3A4 (Homo sapiens, UniProt P08684)            72

--- query ---
Documented inhibition at 5 min, 10 µM of Cc1ccc(-n2nccn2)c(C(=O)N2CCC[C@@H](C)[C@H]2CNc2ccc(C(F)(F)F)cn2)c1 (racemic) : 78

* * *

Quick list: IC50 per entry.
TARGET DESC: OX1 (Homo sapiens)
Construct: expressed in transfected cells; host or cells: CHO (CHO-OX1, kept under G418 or Blasticidin selection)
Sequence (O43613 whole entry): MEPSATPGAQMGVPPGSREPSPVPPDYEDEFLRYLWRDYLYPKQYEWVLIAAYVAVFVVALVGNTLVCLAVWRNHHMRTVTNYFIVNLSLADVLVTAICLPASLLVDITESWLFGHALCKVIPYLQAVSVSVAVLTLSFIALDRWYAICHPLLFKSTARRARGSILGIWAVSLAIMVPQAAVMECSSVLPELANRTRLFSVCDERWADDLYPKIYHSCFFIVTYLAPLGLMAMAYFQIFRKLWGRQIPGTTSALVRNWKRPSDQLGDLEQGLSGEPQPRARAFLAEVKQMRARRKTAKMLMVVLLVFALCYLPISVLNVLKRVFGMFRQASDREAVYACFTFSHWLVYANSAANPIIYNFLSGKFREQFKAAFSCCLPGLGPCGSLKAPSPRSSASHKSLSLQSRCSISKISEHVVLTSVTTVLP
PROTOCOL NOTES: Orexin receptor cell-based functional assay: [Ca2+]i by FLIPR in CHO-OX1 cells, antagonism of EC90 of OXA
CONDITION CONTEXT: Table 5; read-out: OX1 IC50
Respond with a number, then the unit of measure.

> print(dat)
                                   compound  endpoint.name  assay.result
1  Cc1nc(C(=O)N2CCCC(C)(C)C2CNc2ncc(C(F)(F)F)cn2)c(-c2ccc(F)cc2)s1 (centres unmarked) [SR-12364, reference compound]           IC50        137 nM

--- query ---
Documented IC50 of Cc1nc(C(=O)N2CCCCC2CNc2ncc(C(F)(F)F)cn2)c(-c2ccc(F)cc2)s1 (centres unmarked) [SR-12376, reference compound] : 13 nM
